Entries annotated with measured MIC
# System: P. aeruginosa
# Assay details: microbe, parasite or virus in culture
# Set-up: antibacterial MIC determination
# Condition: Pseudomonas aeruginosa
Result type: MIC (µg/mL)

{"Compound": "O=C(O)c1cc(O)c(O)c(O)c1 [Gallic acid]", "Result type": "MIC", "Modifier": ">", "Reported value": 256}
{"Compound": "CCCCCc1cc(O)cc2c1Oc1cc(O)cc(C(=O)CCCC)c1C(=O)O2 [NBD, norlobaridone]", "Result type": "MIC", "Modifier": "=", "Reported value": 128}
{"Compound": "Oc1cc(O)cc(O)c1 [Phloroglucinol]", "Result type": "MIC", "Modifier": "=", "Reported value": 64}
{"Compound": "CCCCCc1ccccc1O [Pentylphenol]", "Result type": "MIC", "Modifier": "=", "Reported value": 256}
{"Compound": "CC(=O)c1c(O)c(C)c(O)c(Cc2c(O)c3c(c(C(=O)/C=C/c4ccccc4)c2O)OC(C)(C)C=C3)c1O [Rottlerin]", "Result type": "MIC", "Modifier": ">", "Reported value": 256}
{"Compound": "O=C(O)c1ccc(O)cc1 [P-hydroxy benzoic acid]", "Result type": "MIC", "Modifier": "=", "Reported value": 128}
{"Compound": "O=c1oc2c(O)c(O)cc3c(=O)oc4c(O)c(O)cc1c4c23 [Ellagic acid]", "Result type": "MIC", "Modifier": "=", "Reported value": 128}
{"Compound": "Oc1cccc(O)c1 [Resorcinol]", "Result type": "MIC", "Modifier": "=", "Reported value": 128}

====

# Test system: E. coli
# Assay details: microbe, parasite or virus in culture
# Parameters: antibacterial MIC determination
# Condition: Escherichia coli
Entries annotated with measured MIC

{"Compound": "CC(=O)c1c(O)c(C)c(O)c(Cc2c(O)c3c(c(C(=O)/C=C/c4ccccc4)c2O)OC(C)(C)C=C3)c1O [Rottlerin]", "Unit of measure": "µg/mL", "Modifier": ">", "MIC": 256}
{"Compound": "Oc1cc(O)cc(O)c1 [Phloroglucinol]", "Unit of measure": "µg/mL", "Modifier": "=", "MIC": 64}
{"Compound": "O=C(O)c1cc(O)c(O)c(O)c1 [Gallic acid]", "Unit of measure": "µg/mL", "Modifier": ">", "MIC": 256}
{"Compound": "O=c1oc2c(O)c(O)cc3c(=O)oc4c(O)c(O)cc1c4c23 [Ellagic acid]", "Unit of measure": "µg/mL", "Modifier": "=", "MIC": 128}
{"Compound": "CCCCCc1cc(O)cc2c1Oc1cc(O)cc(C(=O)CCCC)c1C(=O)O2 [NBD, norlobaridone]", "Unit of measure": "µg/mL", "Modifier": "=", "MIC": 128}

====

# Test system: E. coli
# Assay details: microbe, parasite or virus in culture
# Set-up: antibacterial MIC determination
# Condition: Escherichia coli
Entries annotated with measured MIC

{"Molecule": "O=C(O)c1ccc(O)cc1 [P-hydroxy benzoic acid]", "Subject of test": "E. coli", "MIC": "> 256 mg/L"}
{"Molecule": "CCCCCc1ccccc1O [Pentylphenol]", "Subject of test": "E. coli", "MIC": "> 256 mg/L"}
{"Molecule": "Oc1cccc(O)c1 [Resorcinol]", "Subject of test": "E. coli", "MIC": "128 mg/L"}
